Target: T1, HCV Core1-169 (hepatitis C virus (HCV-1), UniProt P26664 1-169)
T1 sequence: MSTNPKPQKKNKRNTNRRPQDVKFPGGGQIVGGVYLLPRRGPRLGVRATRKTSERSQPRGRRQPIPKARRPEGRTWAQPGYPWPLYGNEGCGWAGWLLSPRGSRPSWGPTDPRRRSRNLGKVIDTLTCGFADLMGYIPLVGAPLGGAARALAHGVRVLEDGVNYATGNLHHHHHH
Assay: SPR sandwich, capture mAb C11-7
reported.endpoint: expected percent binding (%)
Field format: number, assumed %, no unit text.

Study these solved cases before continuing.
- binder: "HCV 208A-638 (antibody, V domains shown) VH: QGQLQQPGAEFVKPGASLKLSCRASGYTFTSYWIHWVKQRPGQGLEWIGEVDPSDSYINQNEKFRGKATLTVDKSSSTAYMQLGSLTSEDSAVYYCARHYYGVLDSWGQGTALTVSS VL: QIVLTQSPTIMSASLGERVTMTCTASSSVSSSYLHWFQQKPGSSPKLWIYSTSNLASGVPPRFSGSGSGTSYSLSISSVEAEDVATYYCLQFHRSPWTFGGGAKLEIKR"
  unit.text: "%"
  expected percent binding: 16.9
- binder: "HCV 208B-612 (antibody, V domains shown) VH: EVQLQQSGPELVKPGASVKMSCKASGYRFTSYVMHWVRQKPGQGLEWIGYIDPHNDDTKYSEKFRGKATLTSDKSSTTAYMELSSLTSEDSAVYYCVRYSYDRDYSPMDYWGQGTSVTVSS VL: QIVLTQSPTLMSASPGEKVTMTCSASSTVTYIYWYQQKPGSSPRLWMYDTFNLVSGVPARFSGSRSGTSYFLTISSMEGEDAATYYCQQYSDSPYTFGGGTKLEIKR"
  unit.text: "%"
  expected percent binding: 4.4

// expected percent binding value for HCV 208A-557 (antibody, V domains shown) VH: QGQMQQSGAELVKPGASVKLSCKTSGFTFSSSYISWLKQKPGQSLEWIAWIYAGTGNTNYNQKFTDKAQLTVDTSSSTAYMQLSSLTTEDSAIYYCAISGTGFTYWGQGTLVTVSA VL: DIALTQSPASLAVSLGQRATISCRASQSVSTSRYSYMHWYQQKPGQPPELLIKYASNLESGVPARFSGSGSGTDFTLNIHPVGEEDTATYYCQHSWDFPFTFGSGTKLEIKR : 21.4
